Reported pKd values for the following molecules.
target: R12 domain of RyR3 (Homo sapiens, UniProt Q15413); construct: RyR1 854–1054, RyR2 865–1065, RyR3 853–1053; made in house; host or cells: E. coli BL21 (DE3); test: ITC, R12 domain of RyR3; type: binding; conditions: RyR3 R12 + 5 mM ADP
Sequence (Q15413 853-1053): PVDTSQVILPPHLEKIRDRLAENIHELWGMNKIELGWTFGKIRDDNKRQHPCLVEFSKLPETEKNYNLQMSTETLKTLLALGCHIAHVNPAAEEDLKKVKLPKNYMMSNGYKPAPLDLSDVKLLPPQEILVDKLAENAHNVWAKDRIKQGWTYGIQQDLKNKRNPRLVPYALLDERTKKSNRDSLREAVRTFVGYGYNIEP
Just the number, please; pKd means minus log10 of the concentration in mol/L.

| compound | measured.on | pKd |
| --- | --- | --- |
| O=C(C[C@@H](NCCCO)C(=O)O)Nc1ccc2ccccc2c1 | R12 domain of RyR3 (Homo sapiens, UniProt Q15413) | 4.89 |
| O=C1CN(/N=C/c2ncc(-c3ccc(Br)cc3)o2)C(=O)N1 | R12 domain of RyR3 (Homo sapiens, UniProt Q15413) | 7.28 |

Name the recorded pKd of the molecule listed here: O=C1CN(/N=C/c2ccc(-c3ccc([N+](=O)[O-])cc3)o2)C(O)=N1
7.22

The values you see were collected from paper PMC12627627.
